Source of measurements: patent US20240189318A1

- assay_system: CYP2C19 (Homo sapiens, UniProt P33261)
- Sequence (P33261 whole entry): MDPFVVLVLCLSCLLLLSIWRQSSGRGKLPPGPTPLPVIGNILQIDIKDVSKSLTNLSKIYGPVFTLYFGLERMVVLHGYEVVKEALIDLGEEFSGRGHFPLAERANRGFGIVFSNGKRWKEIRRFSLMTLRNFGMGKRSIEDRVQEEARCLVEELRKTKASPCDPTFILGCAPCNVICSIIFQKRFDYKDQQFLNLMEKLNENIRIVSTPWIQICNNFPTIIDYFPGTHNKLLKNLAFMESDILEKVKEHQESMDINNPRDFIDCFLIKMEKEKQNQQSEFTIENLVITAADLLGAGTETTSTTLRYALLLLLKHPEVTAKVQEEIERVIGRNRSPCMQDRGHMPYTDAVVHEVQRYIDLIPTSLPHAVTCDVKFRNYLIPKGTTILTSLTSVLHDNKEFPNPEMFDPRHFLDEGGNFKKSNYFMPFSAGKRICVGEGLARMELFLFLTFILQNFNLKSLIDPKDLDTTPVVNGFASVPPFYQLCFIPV
- test_summary: CYP enzyme inhibition in pooled human liver microsomes, CYP2C19
- measurement_conditions: human, microsomes, Enzyme activity (% inhibition), 30 Minutes Pre-incubation without NADPH, CYP2C19; 30 μM; probe S-Mephenytoin; PHLM
measured_attribute: inhibition at 30 µM (%)
The answer is to be given in %; state only the numeric part.

inhibition at 30 µM measured on COC[C@H](NC(=O)c1ccn(S(C)(=O)=O)c1)C(=O)Nc1nc(-c2cccc(N3C[C@@H](C)O[C@@H](C)C3)n2)cs1 = 21.4

====

- assay_system: CYP1A2 (Homo sapiens, UniProt P05177)
- Sequence (P05177 whole entry): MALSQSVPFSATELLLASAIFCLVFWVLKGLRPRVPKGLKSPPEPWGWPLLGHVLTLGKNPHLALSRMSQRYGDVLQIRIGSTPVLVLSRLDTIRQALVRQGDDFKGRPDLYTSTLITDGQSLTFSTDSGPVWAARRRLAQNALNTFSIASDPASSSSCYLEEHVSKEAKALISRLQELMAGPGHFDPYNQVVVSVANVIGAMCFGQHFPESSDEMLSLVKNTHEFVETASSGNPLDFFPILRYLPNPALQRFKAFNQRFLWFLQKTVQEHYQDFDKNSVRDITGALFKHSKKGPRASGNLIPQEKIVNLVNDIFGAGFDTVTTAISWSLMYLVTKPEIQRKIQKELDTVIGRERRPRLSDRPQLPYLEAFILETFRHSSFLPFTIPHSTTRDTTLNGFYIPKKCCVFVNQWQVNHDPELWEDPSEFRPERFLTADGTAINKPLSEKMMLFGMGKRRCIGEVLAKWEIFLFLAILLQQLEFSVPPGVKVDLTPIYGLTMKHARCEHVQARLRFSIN
- test_summary: CYP enzyme inhibition in pooled human liver microsomes, CYP1A2
pIC50: −log10 of the molar value.
measured_attribute: pIC50

pIC50 measured on COC[C@H](NC(=O)c1ccn(S(C)(=O)=O)c1)C(=O)Nc1nc(-c2cccc(N3C[C@@H](C)O[C@@H](C)C3)n2)cs1 [compound of formula (I)] = < 4.52

====

- assay_system: CYP2C19 (Homo sapiens, UniProt P33261)
- test_summary: Selective chemical inhibition of compound of formula (I) depletion in human liver microsomes, CYP2C19
- Assay type: in vitro ADME
- Parameters: from tissue; host or cells: human liver microsomes
- measurement_conditions: human, human liver microsomes, probe compound of formula (I) (depletion); Time-dependent inhibitor; targeted CYP 2C19; inhibitor 10 μM
measured_attribute: inhibition at 10 µM (%)
The answer is to be given in %; state only the numeric part.

inhibition at 10 µM measured on COc1ccc2nc([S@@+]([O-])Cc3ncc(C)c(OC)c3C)[nH]c2c1 [Esomeprazole, reference compound] = 27.1

====

- assay_system: BCRP (Homo sapiens, UniProt Q9UNQ0)
- Construct: expressed in transfected cells; host or cells: MDCK-II
- Sequence (Q9UNQ0 whole entry): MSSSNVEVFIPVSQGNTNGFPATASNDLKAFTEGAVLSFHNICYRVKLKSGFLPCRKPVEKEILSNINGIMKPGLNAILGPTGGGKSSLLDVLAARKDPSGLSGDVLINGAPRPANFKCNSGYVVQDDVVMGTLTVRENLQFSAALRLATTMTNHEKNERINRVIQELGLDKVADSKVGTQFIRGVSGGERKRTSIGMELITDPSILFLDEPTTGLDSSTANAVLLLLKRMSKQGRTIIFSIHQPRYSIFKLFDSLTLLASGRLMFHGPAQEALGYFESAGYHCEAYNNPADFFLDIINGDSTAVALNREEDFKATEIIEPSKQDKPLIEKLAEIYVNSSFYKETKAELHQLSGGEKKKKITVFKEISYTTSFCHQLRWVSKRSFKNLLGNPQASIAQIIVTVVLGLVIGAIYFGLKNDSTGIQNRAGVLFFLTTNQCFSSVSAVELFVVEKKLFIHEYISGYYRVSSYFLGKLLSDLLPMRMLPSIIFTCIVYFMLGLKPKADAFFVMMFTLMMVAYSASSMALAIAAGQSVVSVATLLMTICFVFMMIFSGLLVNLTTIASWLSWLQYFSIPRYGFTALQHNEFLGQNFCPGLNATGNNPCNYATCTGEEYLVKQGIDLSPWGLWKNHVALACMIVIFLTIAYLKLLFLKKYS
- test_summary: Bidirectional transport in MDCK-II cells expressing BCRP
- Type: in vitro ADME
- measurement_conditions: human; read-out: Papp A→B, in transporter cells
measured_attribute: Papp A→B at 1 μM (×10⁻⁶ cm/s)
The answer is to be given in ×10⁻⁶ cm/s; state only the numeric part.

Papp A→B at 1 μM on BCRP (Homo sapiens, UniProt Q9UNQ0) for COC[C@H](NC(=O)c1ccn(S(C)(=O)=O)c1)C(=O)Nc1nc(-c2cccc(N3C[C@@H](C)O[C@@H](C)C3)n2)cs1 is 6.15

====

- assay_system: UniProt P11712
measured_attribute: IC50

IC50 measured on COC[C@H](NC(=O)c1ccn(S(C)(=O)=O)c1)C(=O)Nc1nc(-c2cccc(N3C[C@@H](C)O[C@@H](C)C3)n2)cs1 = > 30 µM

====

- Tested on: CYP3A4/5
- test_summary: CYP enzyme inhibition in pooled human liver microsomes, CYP3A4/5
- measurement_conditions: human, pooled human liver microsomes, probe testosterone (6β-hydroxylation), Enzyme activity (% inhibition), 30 Minutes Pre-incubation without NADPH, CYP3A4/5; 10 μM; probe Testosterone; PHLM
measured_attribute: inhibition at 10 µM (%)
The answer is to be given in %; state only the numeric part.

inhibition at 10 µM on CYP3A4/5 for COC[C@H](NC(=O)c1ccn(S(C)(=O)=O)c1)C(=O)Nc1nc(-c2cccc(N3C[C@@H](C)O[C@@H](C)C3)n2)cs1 is 10.5

====

- assay_system: CYP2C9 (Homo sapiens, UniProt P11712)
- Sequence (P11712 whole entry): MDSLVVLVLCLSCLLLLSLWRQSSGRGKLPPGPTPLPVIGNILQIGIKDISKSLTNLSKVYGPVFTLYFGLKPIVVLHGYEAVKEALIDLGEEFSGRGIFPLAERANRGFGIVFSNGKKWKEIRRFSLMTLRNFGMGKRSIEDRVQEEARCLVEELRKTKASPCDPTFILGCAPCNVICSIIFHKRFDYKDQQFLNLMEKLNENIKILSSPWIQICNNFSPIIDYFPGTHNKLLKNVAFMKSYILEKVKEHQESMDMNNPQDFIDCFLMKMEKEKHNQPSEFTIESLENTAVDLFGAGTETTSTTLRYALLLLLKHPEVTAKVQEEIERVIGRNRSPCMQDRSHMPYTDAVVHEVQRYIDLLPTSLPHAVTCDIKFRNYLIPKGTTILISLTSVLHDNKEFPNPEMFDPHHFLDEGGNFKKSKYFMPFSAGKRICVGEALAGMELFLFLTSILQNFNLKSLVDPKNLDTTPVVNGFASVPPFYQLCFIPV
- test_summary: in vitro
measured_attribute: inhibition at 20 µM (%)
The answer is to be given in %; state only the numeric part.

inhibition at 20 µM measured on O=C(O)COc1ccc(C(=O)c2cccs2)c(Cl)c1Cl [Tienilic acid] = 2.4

====

- assay_system: CYP2C19 (Homo sapiens)
- test_summary: CYP enzyme inhibition in pooled human liver microsomes, CYP2C19
- measurement_conditions: human, microsomes, Enzyme activity (% inhibition), 30 Minutes Pre-incubation with NADPH, CYP2C19; 30 μM; probe S-Mephenytoin; PHLM
measured_attribute: inhibition at 30 µM (%)
The answer is to be given in %; state only the numeric part.

inhibition at 30 µM measured on COC[C@H](NC(=O)c1ccn(S(C)(=O)=O)c1)C(=O)Nc1nc(-c2cccc(N3C[C@@H](C)O[C@@H](C)C3)n2)cs1 = 28.1

====

- test_summary: Bidirectional transport in MDCK control cells (passive permeability)
- Format: in vitro ADME
- measurement_conditions: dog, MDCK, BCRP assay; 10 μM compound of formula (I)
measured_attribute: Papp A→B at 10 μM (×10⁻⁶ cm/s)
The answer is to be given in ×10⁻⁶ cm/s; state only the numeric part.

Papp A→B at 10 μM measured on COC[C@H](NC(=O)c1ccn(S(C)(=O)=O)c1)C(=O)Nc1nc(-c2cccc(N3C[C@@H](C)O[C@@H](C)C3)n2)cs1 [compound of formula (I)] = 25.4

====

- test_summary: Bidirectional transport in MDCK control cells (passive permeability)
- Type: in vitro ADME
- measurement_conditions: dog, MDCK, P-gp assay; 10 μM compound of formula (I)
measured_attribute: Papp B→A at 10 μM (×10⁻⁶ cm/s)
The answer is to be given in ×10⁻⁶ cm/s; state only the numeric part.

Papp B→A at 10 μM measured on COC[C@H](NC(=O)c1ccn(S(C)(=O)=O)c1)C(=O)Nc1nc(-c2cccc(N3C[C@@H](C)O[C@@H](C)C3)n2)cs1 = 23.6

====

- assay_system: CYP2B6 (Homo sapiens, UniProt P20813)
measured_attribute: IC50

IC50 on CYP2B6 (Homo sapiens, UniProt P20813) for COC[C@H](NC(=O)c1ccn(S(C)(=O)=O)c1)C(=O)Nc1nc(-c2cccc(N3C[C@@H](C)O[C@@H](C)C3)n2)cs1 is > 30 µM

====

- assay_system: CYP2D6 (Homo sapiens, UniProt P10635)
- Sequence (P10635 whole entry): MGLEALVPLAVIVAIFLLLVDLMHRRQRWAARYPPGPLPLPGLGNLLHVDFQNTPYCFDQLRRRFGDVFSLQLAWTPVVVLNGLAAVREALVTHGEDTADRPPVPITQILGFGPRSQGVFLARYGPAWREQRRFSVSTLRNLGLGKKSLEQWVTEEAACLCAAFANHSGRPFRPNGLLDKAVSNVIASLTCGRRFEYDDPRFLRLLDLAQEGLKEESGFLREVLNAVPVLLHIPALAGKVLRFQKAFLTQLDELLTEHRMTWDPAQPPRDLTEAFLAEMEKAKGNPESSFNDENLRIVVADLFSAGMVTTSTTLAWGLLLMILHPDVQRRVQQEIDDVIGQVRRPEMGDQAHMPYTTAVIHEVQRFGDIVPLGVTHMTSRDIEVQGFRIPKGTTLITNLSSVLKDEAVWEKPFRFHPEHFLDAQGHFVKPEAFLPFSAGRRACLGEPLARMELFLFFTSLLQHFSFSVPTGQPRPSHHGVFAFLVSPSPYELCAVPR
- test_summary: CYP enzyme inhibition in pooled human liver microsomes, CYP2D6
- measurement_conditions: human, microsomes, Enzyme activity (% inhibition), 30 Minutes Pre-incubation without NADPH, CYP2D6; 30 μM; probe Dextromethorphan; PHLM
measured_attribute: inhibition at 30 µM (%)
The answer is to be given in %; state only the numeric part.

inhibition at 30 µM measured on COC[C@H](NC(=O)c1ccn(S(C)(=O)=O)c1)C(=O)Nc1nc(-c2cccc(N3C[C@@H](C)O[C@@H](C)C3)n2)cs1 = 11.5

====

- assay_system: CYP2B6 (Homo sapiens, UniProt P20813)
- Sequence (P20813 1-491): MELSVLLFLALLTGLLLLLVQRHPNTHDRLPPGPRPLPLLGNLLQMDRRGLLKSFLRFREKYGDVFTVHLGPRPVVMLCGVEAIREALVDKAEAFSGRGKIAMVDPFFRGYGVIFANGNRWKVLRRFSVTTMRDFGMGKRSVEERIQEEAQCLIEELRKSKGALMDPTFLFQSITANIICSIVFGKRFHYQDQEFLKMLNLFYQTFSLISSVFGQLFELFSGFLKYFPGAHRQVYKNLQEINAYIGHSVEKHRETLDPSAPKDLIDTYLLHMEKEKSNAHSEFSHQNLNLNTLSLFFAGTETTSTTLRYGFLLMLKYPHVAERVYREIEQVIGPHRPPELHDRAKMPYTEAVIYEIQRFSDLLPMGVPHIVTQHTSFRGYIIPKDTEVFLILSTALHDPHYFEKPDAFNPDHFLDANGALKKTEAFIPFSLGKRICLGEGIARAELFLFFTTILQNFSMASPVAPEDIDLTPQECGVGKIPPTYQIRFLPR
- test_summary: CYP enzyme inhibition in pooled human liver microsomes, CYP2B6
- measurement_conditions: human, microsomes, Enzyme activity (% inhibition), 30 Minutes Pre-incubation with NADPH, CYP2B6; 30 μM; probe Efavirenz; PHLM
measured_attribute: inhibition at 30 µM (%)
The answer is to be given in %; state only the numeric part.

inhibition at 30 µM measured on COC[C@H](NC(=O)c1ccn(S(C)(=O)=O)c1)C(=O)Nc1nc(-c2cccc(N3C[C@@H](C)O[C@@H](C)C3)n2)cs1 [compound of formula (I)] = -10

====

- assay_system: BCRP (Homo sapiens)
- Construct: expressed in transfected cells; host or cells: MDCK-II
- test_summary: Transporter inhibition in MDCK-II cells, BCRP
- Format: in vitro ADME
- measurement_conditions: BCRP; probe prazosin 2 μM; corrected; read-out: IC50 corrected for non-specific binding
measured_attribute: IC50 (µM)
The answer is to be given in µM; state only the numeric part.

IC50 on BCRP (Homo sapiens) for COC[C@H](NC(=O)c1ccn(S(C)(=O)=O)c1)C(=O)Nc1nc(-c2cccc(N3C[C@@H](C)O[C@@H](C)C3)n2)cs1 [compound of formula (I)] is 2.38

====

- Tested on: CYP3A4/5
- test_summary: CYP enzyme inhibition in pooled human liver microsomes, CYP3A4/5
- measurement_conditions: human, pooled human liver microsomes, probe midazolam (1′-hydroxylation), Enzyme activity (% inhibition), No Pre-incubation, CYP3A4/5; 10 μM; probe Midazolam; PHLM
measured_attribute: inhibition at 10 µM (%)
The answer is to be given in %; state only the numeric part.

inhibition at 10 µM measured on COC[C@H](NC(=O)c1ccn(S(C)(=O)=O)c1)C(=O)Nc1nc(-c2cccc(N3C[C@@H](C)O[C@@H](C)C3)n2)cs1 [compound of formula (I)] = 18.2
